targetDesc: Voltage-dependent calcium channel subunit alpha-2/delta-1 (Homo sapiens)
Sequence (P54289 25-956 limits assumed): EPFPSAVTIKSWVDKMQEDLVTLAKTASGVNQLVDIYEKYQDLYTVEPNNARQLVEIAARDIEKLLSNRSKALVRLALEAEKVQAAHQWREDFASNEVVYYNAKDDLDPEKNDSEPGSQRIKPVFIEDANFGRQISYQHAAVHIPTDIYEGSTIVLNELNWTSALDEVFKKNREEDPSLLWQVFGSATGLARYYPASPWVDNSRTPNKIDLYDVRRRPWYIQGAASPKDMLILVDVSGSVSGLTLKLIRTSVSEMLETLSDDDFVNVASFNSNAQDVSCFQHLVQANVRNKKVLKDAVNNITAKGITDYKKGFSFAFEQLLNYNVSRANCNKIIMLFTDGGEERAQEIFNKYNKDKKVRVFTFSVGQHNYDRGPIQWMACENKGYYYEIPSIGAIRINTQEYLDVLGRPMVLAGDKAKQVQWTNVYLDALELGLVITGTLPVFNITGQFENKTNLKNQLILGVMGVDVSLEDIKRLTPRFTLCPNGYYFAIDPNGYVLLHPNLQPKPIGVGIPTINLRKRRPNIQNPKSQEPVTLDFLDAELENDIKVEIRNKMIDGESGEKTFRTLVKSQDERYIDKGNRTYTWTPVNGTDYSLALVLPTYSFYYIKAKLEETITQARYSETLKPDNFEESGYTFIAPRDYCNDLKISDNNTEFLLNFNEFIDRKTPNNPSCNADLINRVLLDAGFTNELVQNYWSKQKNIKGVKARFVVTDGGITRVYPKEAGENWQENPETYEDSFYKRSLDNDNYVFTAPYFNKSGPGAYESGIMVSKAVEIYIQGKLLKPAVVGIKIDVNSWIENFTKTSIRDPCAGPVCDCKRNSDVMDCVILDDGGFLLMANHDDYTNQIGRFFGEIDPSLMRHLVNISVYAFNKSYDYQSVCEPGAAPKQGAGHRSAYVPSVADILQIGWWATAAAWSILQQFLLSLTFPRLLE
Sequence (P54289 957-1103 limits assumed): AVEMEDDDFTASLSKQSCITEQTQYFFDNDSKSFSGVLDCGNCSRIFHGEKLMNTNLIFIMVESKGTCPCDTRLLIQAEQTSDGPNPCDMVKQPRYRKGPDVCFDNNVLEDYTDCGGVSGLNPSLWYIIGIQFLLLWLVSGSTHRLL
testProtocol: Binding affinity against alpha2 delta-1 subunit of voltage-gated calcium channel in human.
Recorded IC50 values for a group of molecules are listed next.
Numbers only here, please. The scale is nM.

Reference set, count: 5
CN(CCc1ccccc1)Cc1cccc(COc2nn3c(C(F)(F)F)nnc3c3ccccc23)n1; 10000
CC(C)(Cc1ccccc1)NCc1cccc(COc2nn3c(C(F)(F)F)nnc3c3ccccc23)n1; 10000
C[C@H](NCCc1ccccc1)c1cccc(COc2nn3c(C(F)(F)F)nnc3c3ccccc23)n1; 30
CC(CNCc1cccc(COc2nn3c(C(F)(F)F)nnc3c3ccccc23)n1)c1ccccc1 (racemic); 198
[3H]c1cccc(CCN[C@@H](C)c2cccc(COc3nn4c(C(F)(F)F)nnc4c4ccccc34)n2)c1; 30

response.value for C[C@@H](Cc1ccccc1)NCc1cccc(COc2nn3c(C(F)(F)F)nnc3c3ccccc23)n1 (field: IC50) = 700

response.value for CC(Cc1ccccc1)NCc1cccc(COc2nn3c(C(F)(F)F)nnc3c3ccccc23)n1 (racemic) (field: IC50) = 1370

response.value for Fc1cccc(CCNCc2cccc(COc3nn4c(C(F)(F)F)nnc4c4ccccc34)n2)c1 (field: IC50) = 161

====

targetDesc: Voltage-dependent calcium channel subunit alpha-2/delta-1 (Homo sapiens)
testProtocol: Binding affinity against alpha-2 delta-1 subunit of voltage gated subunit of Ca+2 channel in human
propertyLabel: IC50 (nM)
Numbers only here, please. The scale is nM.

CSc1nnc2c3ccccc3c(OCc3cccc(CNCCc4ccccc4)n3)nn12; 194
FC(F)(F)c1nnc2c3ccccc3c(OCc3cccc(CNCCc4ccccc4)n3)nn12; 72
COc1ccc(CCNCc2cccc(COc3nn4c(C(F)(F)F)nnc4c4ccccc34)n2)cc1; 829
CC(C)c1nnc2c3ccccc3c(OCc3cccc(CNCCc4ccccc4)n3)nn12; 342
CCc1nnc2c3ccccc3c(OCc3cccc(CNCCc4ccccc4)n3)nn12; 241
Fc1ccccc1CCNCc1cccc(COc2nn3c(C(F)(F)F)nnc3c3ccccc23)n1; 291

Let me check: c1ccc(CCNCc2cccc(COc3nn4cnnc4c4ccccc34)n2)cc1 , system Voltage-dependent calcium channel subunit alpha-2/delta-1 (Homo sapiens), measured IC50 is 230

Let me check: c1ccc(CCNCc2cccc(COc3nn4c(-c5ccccc5)nnc4c4ccccc34)n2)cc1 , system Voltage-dependent calcium channel subunit alpha-2/delta-1 (Homo sapiens), measured IC50 is 195

Let me check: c1ccc(CCNCc2cccc(COc3nn4c(C5CCCCC5)nnc4c4ccccc34)n2)cc1 , system Voltage-dependent calcium channel subunit alpha-2/delta-1 (Homo sapiens), measured IC50 is 145

Let me check: c1ccc(CCNCc2cccc(COc3nn4c(C5CC5)nnc4c4ccccc34)n2)cc1 , system Voltage-dependent calcium channel subunit alpha-2/delta-1 (Homo sapiens), measured IC50 is 272

====

targetDesc: Voltage-dependent calcium channel subunit alpha-2/delta-1 (Homo sapiens)
testProtocol: Binding affinity against alpha2 delta-1 subunit of voltage-gated calcium channel in human.
Class definitions on IC50: low = under 0.04 µM, middle = from 0.04 µM up to 0.3 µM, high = 0.3 µM and over

Use the examples below as a reference point.
Cc1cccc(CCNC(C)c2cccc(COc3nn4c(C(F)(F)F)nnc4c4ccccc34)n2)c1 (racemic); low
CC(C)C(NCCc1ccccc1)c1cccc(COc2nn3c(C(F)(F)F)nnc3c3ccccc23)n1 (racemic); middle
Cc1ccc(CCNCc2cccc(COc3nn4c(C(F)(F)F)nnc4c4ccccc34)n2)cc1; middle

Input Cc1ccccc1CCNCc1cccc(COc2nn3c(C(F)(F)F)nnc3c3ccccc23)n1 ; output its category
high

Input C[C@H](NCCc1cccc(Br)c1)c1cccc(COc2nn3c(C(F)(F)F)nnc3c3ccccc23)n1 ; output its category
low

Input CC(NCCc1ccccc1)c1cccc(COc2nn3c(C(F)(F)F)nnc3c3ccccc23)n1 (racemic) ; output its category
low

Input Fc1ccc(CCNCc2cccc(COc3nn4c(C(F)(F)F)nnc4c4ccccc34)n2)cc1 ; output its category
high

Input FC(F)(F)c1nnc2c3ccccc3c(OCc3cccc(CNC4C[C@H]4c4ccccc4)n3)nn12 (mixture of isomers) ; output its category
middle

Input Cc1cccc(CCNCc2cccc(COc3nn4c(C(F)(F)F)nnc4c4ccccc34)n2)c1 ; output its category
low

Input C[C@@H](NCCc1ccccc1)c1cccc(COc2nn3c(C(F)(F)F)nnc3c3ccccc23)n1 ; output its category
high

Input CCC(NCCc1ccccc1)c1cccc(COc2nn3c(C(F)(F)F)nnc3c3ccccc23)n1 (racemic) ; output its category
middle
